Hey, just so you know, these numbers are from patent US20240317721A1.

- target.or.system: KRasG12C (M1-K169, biotinylated on the N-terminus) (Homo sapiens (Human), UniProt P01116, G12C)
- test: Covalent competition assay: scintillation proximity assay (SPA) quantifying covalent modification of KRASG12C
- measurement.setup: competition with radiolabeled covalent probe (Compound B/Compound A), 2 hours incubation, 10 nM KRasG12C
- Procedure: Cells were harvested by centrifugation and frozen at −80° C. until further processing. […] The cells were lysed by 4 passages through an Avestin Emulsiflex at about 20000 psi and insoluble debris removed by centrifugation and filtered through a 0.45 µm Durapore membrane (Millipore). […] Eluted protein fractions were analyzed by Novex NuPage 4-12% PAGE. […] Positive fractions were determined by PAGE (Novex NuPage 4-12% BisTris) analysis. […]
measurement.type: IC50 (nM)

compound	IC50 / nM
C=CC(=O)N1CC2(CC(n3nc(N4CCN(C5CCOCC5)C[C@@]4(C)C(F)F)c(-c4c(Cl)c(C)cc5[nH]ncc45)c3C)C2)C1 (single isomer, unassigned) [Example 146b]	31
C=CC(=O)N1CC2(CC(n3nc(N4CC[C@@H](CN5CC(O)C(OC)C5)CC4(C)C)c(-c4c(Cl)c(Cl)cc5[nH]ncc45)c3C)C2)C1 (single isomer, unassigned) [Example 274b]	8
C=CC(=O)N1CC2(CC(n3nc(N4CC[C@@H](CN5CCOC6CS(=O)(=O)CC65)CC4(C)C)c(-c4c(Cl)c(Cl)cc5[nH]ncc45)c3C)C2)C1 (single isomer, unassigned) [Example 265b]	9
C=CC(=O)N1CC2(CC(n3nc(N4CCN(C5CCOCC5)CC45CCC5)c(-c4c(Cl)c(Cl)cc5[nH]ncc45)c3C)C2)C1 (single isomer, unassigned) [Example 145a]	4300

I. C=CC(=O)N1CC2(CC(n3nc(N4CC[C@@H](CN5CCN(C(=O)NC)CC5)CC4(C)C)c(-c4c(Cl)c(Cl)cc5[nH]ncc45)c3C)C2)C1 (single isomer, unassigned) [Example 289b]
II. C=CC(=O)N1CC2(CC(n3nc(N4CCN(C(C)=O)C[C@@H]4CC)c(-c4c(Cl)c(C)cc5[nH]ncc45)c3C)C2)C1 (single isomer, unassigned) [Example 94b]
Incoming: For the two items I and II , which reports the higher IC50 value? Your answer should be the label of the entry you select.
Outgoing: II
(II: 64 nM, I: 10 nM)

1. C=CC(=O)N1CC2(CC(n3nc(N4CCN(C5CCOCC5)CC45CCC5)c(-c4c(Cl)c(Cl)cc5[nH]ncc45)c3C)C2)C1 (single isomer, unassigned) [Example 145b]
2. C=CC(=O)N1CC2(CC(n3nc(N4CCn5nccc5C4)c(-c4c(Cl)c(C)cc5[nH]ncc45)c3C)C2)C1 (single isomer, unassigned) [Example 10b]
Incoming: Please choose the item with the lower IC50 value from this pair: 1 and 2 Your answer should be the label of the entry you select.
Outgoing: 1

a. C=CC(=O)N1CC2(CC(n3nc(N4CC[C@@H](CN5CCN6C(=O)N(C)CC6C5)CC4(C)C)c(-c4c(Cl)c(Cl)cc5[nH]ncc45)c3C)C2)C1 (single isomer, unassigned) [Example 263b]
b. C=CC(=O)N1CC2(CC(n3nc(N4CCC(=O)CC45CCC5)c(-c4c(Cl)c(C)cc5[nH]ncc45)c3C)C2)C1 [Example 46]
c. C=CC(=O)N1CC2(CC(n3nc(N4CCN(C[C@@H]5COCCO5)CC4(C)C)c(-c4c(Cl)c(Cl)cc5[nH]ncc45)c3C)C2)C1 (single isomer, unassigned) [Example 172a]
d. C=CC(=O)N1CC2(CC(n3nc(N4CCC(N5CC6COCC(C5)O6)CC4(C)C)c(-c4c(Cl)c(C)cc5[nH]ncc45)c3C)C2)C1 (single isomer, unassigned) [Example 119b]
Incoming: Ranking field: IC50; order: falling. Answer by writing out the labels in the requested order.
Outgoing: c, b, d, a
(c: 3900 nM, b: 138 nM, d: 36 nM, a: 8 nM)

A. C=CC(=O)N1CC2(CC(n3nc(N4CC[C@@H](CN5CC6OCCN(C)C6C5)CC4(C)C)c(-c4c(Cl)c(Cl)cc5[nH]ncc45)c3C)C2)C1 (single isomer, unassigned) [Example 260b]
B. C=CC(=O)N1CC2(CC(n3nc(N4CC[C@@H](CN5CCN(C6COC6)CC5)CC4(C)C)c(-c4c(C)c(Cl)cc5[nH]ncc45)c3C)C2)C1 (single isomer, unassigned) [Example 244b]
Incoming: For the two items A and B , which reports the higher IC50 value? Your answer should be the label of the entry you select.
Outgoing: A
(A: 9 nM, B: 6 nM)

###

- target.or.system: KRasG12C (M1-K169, biotinylated on the N-terminus) (Homo sapiens (Human), UniProt P01116, G12C)
- test: Covalent competition assay: scintillation proximity assay (SPA) quantifying covalent modification of KRASG12C
- measurement.setup: competition with radiolabeled covalent probe (Compound B/Compound A), 2 hours incubation, 10 nM KRasG12C
measurement.type: IC50 (nM)

Example compounds with recorded IC50:
compound	value.observed
C=CC(=O)N1CC2(CC(n3nc(N4CCC5(CC4)CN(C(C)=O)CCO5)c(-c4c(Cl)c(C)cc5[nH]ncc45)c3C)C2)C1 (single isomer, unassigned) [Example 26a]	11500
C=CC(=O)N1CC2(CC(n3nc(N4CC[C@@H](CN5CCOCC5)CC4(C)C)c(-c4c(Cl)c(Cl)cc5[nH]ncc45)c3C)C2)C1 (single isomer, unassigned) [Example 213b]	12

I. C=CC(=O)N1CC2(CC(n3nc(N4CCC(CN5CCN(C)CC5=O)CC4(C)C)c(-c4c(Cl)c(Cl)cc5[nH]ncc45)c3C)C2)C1 (single isomer, unassigned) [Example 240b]
II. C=CC(=O)N1CC2(CC(n3nc(N4CCN(C(C)=O)CC4)c(-c4c(Cl)ccc5[nH]ncc45)c3C)C2)C1C (single isomer, unassigned) [Example 196b]
III. C=CC(=O)N1CC2(CC(n3nc(N4CCC(CN5CCOCC5)CC4(C)COC)c(-c4c(Cl)c(Cl)cc5[nH]ncc45)c3C)C2)C1 (single isomer, unassigned) [Example 221a]
IV. C=CC(=O)N1CC2(CC(n3nc(N4C[C@H]5C[C@@H]4CN5C(C)=O)c(-c4c(Cl)c(C)cc5[nH]ncc45)c3C)C2)C1
Incoming: Ranking field: IC50; order: falling. Answer by writing out the labels in the requested order.
Outgoing: II, IV, I, III
(II: 9000 nM, IV: 2200 nM, I: 8 nM, III: 5 nM)

1. C=CC(=O)N1CC2(CC(n3nc(N4CC[C@@H](CN5CCn6cnnc6C5)CC4(C)C)c(-c4c(Cl)c(Cl)cc5[nH]ncc45)c3C)C2)C1 (single isomer, unassigned) [Example 250b]
2. C=CC(=O)N1CC2(CC(n3nc(N4CC[C@@H](CN5CCOCC5)CC4(C)C)c(-c4c(Cl)c(C)cc5[nH]nc(C)c45)c3C#N)C2)C1 (single isomer, unassigned) [Example 225a]
Incoming: Please choose the item with the lower IC50 value from this pair: 1 and 2 Your answer should be the label of the entry you select.
Outgoing: 1
(1: 8 nM, 2: 341 nM)

###

- target.or.system: KRasG12C (M1-K169, biotinylated on the N-terminus) (Homo sapiens (Human), UniProt P01116, G12C)
- test: Covalent competition assay: scintillation proximity assay (SPA) quantifying covalent modification of KRASG12C
- measurement.setup: competition with radiolabeled covalent probe (Compound B/Compound A), 2 hours incubation, 10 nM KRasG12C
measurement.type: IC50 (nM)

P. C=CC(=O)N1CC2(CC(n3nc(N4CCN(C(C)=O)CC45CCC5)c(-c4c(Cl)c(C)cc5[nH]ncc45)c3C)C2)C1 (single isomer, unassigned) [Example 21b]
Q. C=CC(=O)N1CC2(CC(n3nc(N4CCc5c(cnn5C)C4)c(-c4c(Cl)c(C)cc5[nH]ncc45)c3C)C2)C1 (single isomer, unassigned) [Example 11b]
R. C=CC(=O)N1CC2(CC(n3nc(N4CCC(N(C)C5COC5)CC4(C)C)c(-c4c(Cl)c(Cl)cc5[nH]ncc45)c3C)C2)C1 (single isomer, unassigned) [Example 50b]
S. C=CC(=O)N1CC2(CC(n3nc(N4CCC(N(C)C(=O)COC)CC4(C)C)c(-c4c(Cl)c(C)cc5[nH]ncc45)c3C)C2)C1 (single isomer, unassigned) [Example 97b]
Incoming: Sort the compounds on IC50; start with the lowest figure. Answer by writing out the labels in the requested order.
Outgoing: R, P, Q, S
(R: 5 nM, P: 17 nM, Q: 120 nM, S: 1700 nM)

###

- target.or.system: KRasG12C (M1-K169, biotinylated on the N-terminus) (Homo sapiens (Human), UniProt P01116, G12C)
- test: Covalent competition assay: scintillation proximity assay (SPA) quantifying covalent modification of KRASG12C
- measurement.setup: competition with radiolabeled covalent probe (Compound B/Compound A), 2 hours incubation, 10 nM KRasG12C
measurement.type: IC50 (nM)

compound	unit.abbreviation	IC50
C=CC(=O)N1CC2(CC(n3nc(N4CCC(CN5CC6COCC6C5)CC4(C)C)c(-c4c(Cl)c(Cl)cc5[nH]ncc45)c3C)C2)C1 (single isomer, unassigned) [Example 227b]	nM	8

a. C=CC(=O)N1CC2(CC(n3nc(N4CCN(C(=O)C(F)F)CC4(C)C)c(-c4c(Cl)c(C)cc5[nH]ncc45)c3C)C2)C1 (single isomer, unassigned) [Example 128b]
b. C=CC(=O)N1CC2(CC(n3nc(N4CCN(C5COC5)C[C@]4(C)CC)c(-c4c(Cl)c(C)cc5[nH]nc(N)c45)c3C)C2)C1 (single isomer, unassigned) [Example 158b]
c. C=CC(=O)N1CC2(CC(n3nc(N4CCC(N(CCOC)CCOC)CC45CCC5)c(-c4c(Cl)c(Cl)cc5[nH]ncc45)c3C)C2)C1 (single isomer, unassigned) [Example 80b]
d. C=CC(=O)N1CC2(CC(n3nc(N4CC[C@@H](CN5CC(O)C(OC)C5)CC4(C)C)c(-c4c(Cl)c(Cl)cc5[nH]ncc45)c3C)C2)C1 (single isomer, unassigned) [Example 274a]
Incoming: Ranking field: IC50; order: falling. Answer by writing out the labels in the requested order.
Outgoing: d, b, a, c
